- ASSAY TARGET: MMP-2 (Homo sapiens, UniProt P08253)
- Construct: made in house; provided by Dr. Gregory Goldberg, Washington University
- Sequence (P08253 110-660): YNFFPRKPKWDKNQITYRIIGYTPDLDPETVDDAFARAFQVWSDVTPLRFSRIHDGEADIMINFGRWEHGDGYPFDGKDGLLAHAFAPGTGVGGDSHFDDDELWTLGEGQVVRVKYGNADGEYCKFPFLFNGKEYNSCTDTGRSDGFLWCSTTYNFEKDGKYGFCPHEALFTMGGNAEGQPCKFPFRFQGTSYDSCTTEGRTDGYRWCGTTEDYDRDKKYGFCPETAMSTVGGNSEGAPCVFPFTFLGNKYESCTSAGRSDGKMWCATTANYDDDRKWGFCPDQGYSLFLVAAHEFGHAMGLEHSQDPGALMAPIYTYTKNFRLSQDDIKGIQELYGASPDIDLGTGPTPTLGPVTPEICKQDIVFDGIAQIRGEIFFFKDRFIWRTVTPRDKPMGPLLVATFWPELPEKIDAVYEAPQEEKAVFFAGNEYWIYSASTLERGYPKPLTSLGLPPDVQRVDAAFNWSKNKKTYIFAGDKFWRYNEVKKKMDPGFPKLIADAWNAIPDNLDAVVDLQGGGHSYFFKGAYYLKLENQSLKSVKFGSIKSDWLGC
- MEASUREMENT DESCRIPTION: biochemical
- SETUP CONDITIONS: read-out: MMP-2 IC50
Please respond with reported pIC50 for every item in the list.
Give bare numbers, as −log10 of the molar value.

Field: example entries. Status: answers known.
> print(dat)
                                   molecule  value
1  C[C@H]1C[C@H](C)CN(C(=O)C2CCN(c3ccc(S(=O)(=O)C4(C(=O)NO)CCN(C(=O)OC(C)(C)C)CC4)cc3)CC2)C1 (relative stereo)   5.08
2  COc1ccc(Oc2ccc(S(=O)(=O)C3(C(=O)NO)CCSCC3)cc2)cc1   9.52
3  O=C(c1ccc(F)cc1)C1CCN(c2ccc(S(=O)(=O)C3(C(=O)NO)CCS(=O)(=O)CC3)cc2)CC1   6.05

Below: the item to evaluate.
The reported MMP-2 (Homo sapiens, UniProt P08253) pIC50 of O=C(C1CCN(c2ccc(S(=O)(=O)C3(C(=O)NO)CCOCC3)cc2)CC1)N1CCC(CO)CC1 is 5.98
